# Plant response rating, Sugarbeets per entry
Test system: sugar beet (Beta vulgaris)
Assay: Test B pre-/postemergence
Assay type: in vivo
Parameters: key: 0 is no effect; 10 is complete control
Conditions: Rate 125 g/ha, Preemergence
quantity: Plant response rating, Sugarbeets

INSERT INTO assay_data (molecule, quantity, experimental_value) VALUES
  ('Cc1cnc(-c2cccc(C(F)(F)F)c2)nc1Cc1cccc(C#N)c1 [Compound 39]', 'Plant response rating, Sugarbeets', 0),
  ('Cc1cnc(-n2cnc(C(F)(F)F)n2)nc1Cc1cccc(C(F)(F)F)c1 [Compound 43]', 'Plant response rating, Sugarbeets', 10),
  ('Cc1cnc(-c2ccc(C(F)(F)F)cc2)nc1C(=O)c1ccc(C(F)(F)F)cc1 [Compound 74]', 'Plant response rating, Sugarbeets', 0),
  ('Cc1cnc(-c2ccc(Cl)cc2F)nc1Cc1cccc(C(F)(F)F)c1 [Compound 29]', 'Plant response rating, Sugarbeets', 3),
  ('Cc1cnc(-c2ccc(Cl)cc2)nc1Cc1cccc(C#N)c1 [Compound 33]', 'Plant response rating, Sugarbeets', 1);

---

Tested on: velvetleaf (Abutilon theophrasti)
Test: Test B pre-/postemergence
Type: in vivo
Conditions: Rate 125 g/ha, Postemergence
quantity: Velvetleaf plant response rating

INSERT INTO assay_data (molecule, experimental_value) VALUES
  ('Cc1cnc(-c2ccc(C#N)cc2)nc1Cc1cccc(C#N)c1 [Compound 36]', 1),
  ('Cc1cnc(-c2ccc(C(F)(F)F)cc2)nc1Cn1cc(Br)cn1 [Compound 54]', 2),
  ('Cc1cnc(-c2ccc(Cl)cc2F)nc1Cc1cccc(C#N)c1 [Compound 35]', 1),
  ('Cc1cnc(-n2cnc(C(F)(F)F)c2)nc1C(=O)c1cccc(C(F)(F)F)c1 [Compound 61]', 7),
  ('Cc1cnc(-c2ccc(C(F)(F)F)cc2)nc1Cc1cccc(C#N)c1 [Compound 32]', 8),
  ('Cc1cnc(-n2cnc(C(F)(F)F)n2)nc1Cn1ccc(C(F)(F)F)n1 [Compound 51]', 8),
  ('Cc1cnc(-c2ccc(Cl)cc2)nc1Cc1cccc(C(F)(F)F)c1 [Compound 28]', 4),
  ('Cc1cnc(-n2cnc(C(F)(F)F)c2)nc1Cc1cccc(C(F)(F)F)c1 [Compound 44]', 8),
  ('Cc1cnc(-c2ccc(F)cc2F)nc1Cc1cccc(C#N)c1 [Compound 34]', 1),
  ('Cc1cnc(-c2ccccc2F)nc1Cc1cccc(C(F)(F)F)c1 [Compound 26]', 1),
  ('O=C(c1cccc(C(F)(F)F)c1)c1ccnc(-n2ccc(C(F)(F)F)n2)n1 [Compound 70]', 1);

---

Test system: giant foxtail (Setaria faberii)
Assay: Test B pre-/postemergence
Type: in vivo
Parameters: key: 0 is no effect; 10 is complete control
Conditions: Rate 125 g/ha, Preemergence
# Plant response rating, Giant foxtail per entry
quantity: Plant response rating, Giant foxtail

INSERT INTO results (molecule, quantity, experimental_value) VALUES
  ('Cc1cnc(-n2ccc(C(F)(F)F)n2)nc1C(=O)c1cccc(C(F)(F)F)c1 [Compound 59]', 'Plant response rating, Giant foxtail', 10),
  ('N#Cc1ccc(-c2nccc(C(=O)c3cccc(C(F)(F)F)c3)n2)cc1 [Compound 78]', 'Plant response rating, Giant foxtail', 0),
  ('Cc1cnc(-n2cnc(C(F)(F)F)n2)nc1Cn1ccc(C(F)(F)F)n1 [Compound 51]', 'Plant response rating, Giant foxtail', 10),
  ('Cc1cnc(-c2ccc(C(F)(F)F)cc2)nc1C(=O)c1cccc(OC(F)(F)F)c1 [Compound 75]', 'Plant response rating, Giant foxtail', 5),
  ('Cc1cnc(-n2cnc(C(F)(F)F)n2)nc1C(=O)c1cccc(OC(F)(F)F)c1 [Compound 64]', 'Plant response rating, Giant foxtail', 2),
  ('Cc1cnc(-n2cnc(C(F)(F)F)c2)nc1C(=O)c1cccc(C(F)(F)F)c1 [Compound 61]', 'Plant response rating, Giant foxtail', 9),
  ('Cc1cnc(-n2ccc(C(F)(F)C(F)(F)F)n2)nc1C(=O)c1cccc(C(F)(F)F)c1 [Compound 68]', 'Plant response rating, Giant foxtail', 6);

---

# Plant response rating, Itchgrass per entry
System: itchgrass (Rottboellia exaltata)
Assay: Test E pre-/postemergence/post directed
Assay type: in vivo
Details: POSTEMERGENCE, Rate 250 g/ha
quantity: Plant response rating, Itchgrass

INSERT INTO measurements (smiles_data, target_of_assay, experimental_value) VALUES
  ('Cc1cnc(-n2ccc(C(F)(F)F)n2)nc1Cc1cccc(C(F)(F)F)c1', 'itchgrass (Rottboellia exaltata)', 90),
  ('COc1cnc(-c2ccc(C(F)(F)F)cc2)nc1Cc1cccc(C(F)(F)F)c1', 'itchgrass (Rottboellia exaltata)', 80),
  ('Cc1cnc(-n2ccc(C(F)(F)F)n2)nc1Cn1ccc(C(F)(F)F)n1', 'itchgrass (Rottboellia exaltata)', 40),
  ('Cc1cnc(-c2ccc(C(F)(F)F)cc2)nc1Cc1cccc(C(F)(F)F)c1', 'itchgrass (Rottboellia exaltata)', 85),
  ('Cc1cnc(-c2ccc(C(F)(F)F)cc2)nc1Cn1ccc(C(F)(F)F)n1', 'itchgrass (Rottboellia exaltata)', 30);

---

Tested on: sugar beet (Beta vulgaris)
Experiment: Test B pre-/postemergence
Assay type: in vivo
Parameters: key: 0 is no effect; 10 is complete control
Conditions: Rate 125 g/ha, Preemergence
quantity: Sugarbeets plant response rating

INSERT INTO assay_data (molecule, experimental_value) VALUES
  ('Cc1cnc(-c2ccc(C(F)(F)F)cc2)nc1Cc1cccc(OC(F)(F)F)c1', 10),
  ('COc1cnc(-c2ccc(C(F)(F)F)cc2)nc1Cc1cccc(C(F)(F)F)c1', 8),
  ('COC(=O)C(c1cccc(C(F)(F)F)c1)c1nc(-c2ccc(C(F)(F)F)cc2)ncc1C (racemic)', 6),
  ('Cc1cnc(-c2ccc(C(F)(F)F)cc2)nc1Cn1cc(I)cn1', 8),
  ('COC(c1cccc(C(F)(F)F)c1)c1nc(-c2ccc(C(F)(F)F)cc2)ncc1C (racemic)', 0),
  ('Cc1cnc(-c2ccc(F)c(Cl)c2)nc1Cc1cccc(C(F)(F)F)c1', 8);

---

Test system: common purslane (Portulaca oleracea)
Assay: Test E pre-/postemergence/post directed
Assay type: in vivo
Design: key: 0 is no effect; 100 is complete control
Settings: PREEMERGENCE, Rate 125 g/ha
# Plant response rating, Com. purslane per entry
quantity: Plant response rating, Com. purslane

INSERT INTO assay_data (molecule, experimental_value) VALUES
  ('Cc1cnc(-c2ccc(C(F)(F)F)cc2)nc1Cn1ccc(C(F)(F)F)n1 [compound 9]', 100),
  ('Cc1cnc(-n2ccc(C(F)(F)F)n2)nc1Cc1cccc(OC(F)(F)F)c1 [Compound 42]', 100),
  ('COc1cnc(-c2ccc(C(F)(F)F)cc2)nc1Cc1cccc(C(F)(F)F)c1 [Compound 23]', 100),
  ('Cc1cnc(-c2ccc(C(F)(F)F)cc2)nc1Cc1cccc(OC(F)(F)F)c1 [Compound 15]', 100),
  ('CCc1cnc(-n2ccc(C(F)(F)F)n2)nc1Cc1cccc(C(F)(F)F)c1 [Compound 46]', 100),
  ('Cc1cnc(-n2cnc(C(F)(F)F)c2)nc1Cc1cccc(C(F)(F)F)c1 [Compound 44]', 100),
  ('Cc1cnc(-n2cnc(C(F)(F)F)n2)nc1C(=O)c1cccc(C(F)(F)F)c1 [Compound 67]', 100),
  ('Cc1cnc(-n2ccc(C(F)(F)F)n2)nc1Cc1cccc(C(F)(F)F)c1 [Example 2]', 100);

---

Test system: velvetleaf (Abutilon theophrasti)
Experiment: Test B pre-/postemergence
Format: in vivo
Conditions: Rate 500 g/ha, Preemergence
Description: […] At the same time, these crop and weed species were also treated with postemergence applications of test chemicals formulated in the same manner. […] Treated plants and controls were maintained in a greenhouse for twelve to sixteen days, after which all species were compared to controls and visually evaluated. […]
quantity: Plant response rating, Velvetleaf

INSERT INTO assay_data (molecule, experimental_value) VALUES
  ('Cc1cnc(-c2ccc(C(F)(F)F)cc2)nc1Cn1ccc(C(F)(F)F)n1 [compound 9]', 9),
  ('Cc1cnc(-c2ccc(C(F)(F)F)cc2)nc1Cn1cnc(C(F)(F)F)n1 [Compound 11]', 10),
  ('Cc1cnc(-c2ccc(Cl)cc2)nc1Cn1ccc(C(F)(F)F)n1 [Compound 6]', 3),
  ('Cc1cnc(-c2ccc(C(F)(F)F)cc2)nc1Cn1cc(Br)cn1 [Compound 54]', 1);

---

Tested on: rape (Brassica napus)
Assay: Test B pre-/postemergence
Assay type: in vivo
Conditions: Rate 62 g/ha, Postemergence
# Plant response rating, Rape per entry
quantity: Plant response rating, Rape

INSERT INTO measurements (molecule, target_of_assay, quantity, experimental_value) VALUES
  ('Cc1cnc(-c2ccc(C(F)(F)F)cc2)nc1C(C)c1cccc(C(F)(F)F)c1 (racemic)', 'rape (Brassica napus)', 'Plant response rating, Rape', 2),
  ('Cc1cnc(-c2ccc(C(F)(F)F)cc2)nc1C(Cl)c1cccc(C(F)(F)F)c1 (racemic)', 'rape (Brassica napus)', 'Plant response rating, Rape', 9),
  ('Cc1cnc(-c2ccccc2F)nc1Cc1cccc(C(F)(F)F)c1', 'rape (Brassica napus)', 'Plant response rating, Rape', 3),
  ('Cc1cnc(-c2ccc(C(F)(F)F)cc2)nc1Cn1ccc(C(F)(F)C(F)(F)F)n1', 'rape (Brassica napus)', 'Plant response rating, Rape', 5),
  ('CCc1cnc(-n2ccc(C(F)(F)F)n2)nc1Cc1cccc(C(F)(F)F)c1', 'rape (Brassica napus)', 'Plant response rating, Rape', 9),
  ('Cc1cnc(-c2ccc(C(F)(F)F)cc2)nc1Cc1cccc(OC(F)(F)F)c1', 'rape (Brassica napus)', 'Plant response rating, Rape', 9);
